molecular target: human activated protein C (human, UniProt P04070 43-197; P04070 212-461); test: cell-based or functional assay
readout_kind: Mean clotting time (s), FVIII-deficient plasma, APC-antibody concentration 1 ug/ml

[Q] Query: Mean clotting time (s), FVIII-deficient plasma, APC-antibody concentration 1 ug/ml; subject: HAPC-14-6 (antibody, V domains shown, Whole IgG, backbone hIgG1; also called HPAC 14-6; No. 6) VH: EVQLVESGGGLVQPGGSLRLSCAASGFTFSFYYLNWVRQAPGKGLEWVGDIRLKKNNYEKHYAESVKGRFTISRDDSKSITYLQMNSLRAEDTAVYYCAREGDYFDYWGQGTTVTVSS VL: DIQLTQSPSSLSASVGDRVTITCRASESVDSFGATFMHWYQQKPGKAPKLLIYLASRLGSGVPSRFSGSGSGTDFTLTISSLQPEDFATYYCQQNNEDPYTFGQGTKLEIK
[A] 187 s

[Q] Query: Mean clotting time (s), FVIII-deficient plasma, APC-antibody concentration 1 ug/ml; subject: Humanized antibody 14 (HAPC-14) (antibody, V domains shown, also called Humab001-14; NO; 14 antibody) VH: EVQLVESGGGLVQPGGSLRLSCAASGFTFSNYYLNWVRQAPGKGLEWVGDIRLKSNNYEKHYAESVKGRFTISRDDSKSITYLQMNSLRAEDTAVYYCAREGDYFDYWGQGTTVTVSS VL: DIQLTQSPSSLSASVGDRVTITCRASESVDSFGATFMHWYQQKPGKAPKLLIYLASNLESGVPSRFSGSGSGTDFTLTISSLQPEDFATYYCQQNNEDPYTFGQGTKLEIK
[A] 457 s

[Q] Query: Mean clotting time (s), FVIII-deficient plasma, APC-antibody concentration 1 ug/ml; subject: HAPC-14-1 (antibody, V domains shown, Whole IgG, backbone hIgG1; also called HPAC14-1) VH: EVQLVESGGGLVQPGGSLRLSCAASGFTFSFYYLNWVRQAPGKGLEWVGDIRLKSNNYEKHYAESVKGRFTISRDDSKSITYLQMNSLRAEDTAVYYCAREGDYFDYWGQGTTVTVSS VL: DIQLTQSPSSLSASVGDRVTITCRASESVDSFGATFMHWYQQKPGKAPKLLIYLASWLGSGVPSRFSGSGSGTDFTLTISSLQPEDFATYYCQQNNEDPYTFGQGTKLEIK
[A] 222 s

[Q] Query: Mean clotting time (s), FVIII-deficient plasma, APC-antibody concentration 1 ug/ml; subject: Humanized antibody 13 (HAPC-13) (antibody, V domains shown, also called Humab001-13; NO; 13 antibody) VH: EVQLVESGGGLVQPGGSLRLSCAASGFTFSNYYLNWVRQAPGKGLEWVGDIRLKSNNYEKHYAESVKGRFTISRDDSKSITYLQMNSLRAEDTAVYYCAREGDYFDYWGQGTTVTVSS VL: DIQMTQSPSSLSASVGDRVTITCRASESVDSFGATFMHWYQQKPGKAPKLLIYLASNLESGVPSRFSGSGSGTDFTLTISSLQPEDFATYYCQQNNEDPYTFGQGTKLEIK
[A] 546 s
